Values compiled from PubChem BioAssay AID1159580.

Assay: chemical genetic growth profiling, strain panel (AID 1159580);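 further: tested at 20 µM; growth read once vehicle control cultures reached saturation at 30 °C; 1 = growth at the plate median or of vehicle wells; lower values mean less growth of the strain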
Conditions: S. cerevisiae deletion strains, growth OD, locus YNL298W, strain CLA4 (second series), stronger effect = lower value
Hit rate of the full screen: of about 5,500 compounds, about 2,000 (36%) were called active. Not shown: some 18% with an inconclusive outcome. This is one part of the list.
OBSERVATION TYPE: normalized growth
Keep the answer to the number alone.

Q) Field request: normalized growth | item: `Cc1noc(C)c1C(=O)N1CCN(c2ncc(C(F)(F)F)cc2Cl)CC1`
A) 1.02

Q) Try `O=C(Nc1ccc(Cl)c(Cl)c1)c1ccccc1` next.
A) 0.747

Q) Would you mind doing `O=C(Nc1cc2cc([N+](=O)[O-])ccc2oc1=O)c1c(F)cccc1F` as well?
A) 1.02

Q) Would you kindly repeat that for N#CC(NCc1ccccc1)c1ccc(Cl)c(Cl)c1 (stereo unspecified) ?
A) 0.96

Q) Consider next the compound `NC(=S)COc1ccccc1Cl` in the same way.
A) 0.799

Q) Now try `Cc1nn(C)c(C)c1NS(=O)(=O)c1cc(Cl)sc1Cl` .
A) 1.04

Q) Let us now turn to `O=[N+]([O-])c1ccc(S(=O)(=O)c2ccc(Cl)cc2)cc1O`
A) 0.915

Q) Can you check `CCCc1nc(-c2ccccn2)[nH]c(=O)c1CC1CC1` next?
A) 0.601

Q) Repeat with `Cc1cccc(NC(=S)NCc2ccncc2)c1`
A) 1.01

Q) Okay, and COc1ccccc1C1OC(=O)CC1C(=O)O (stereo unspecified) ?
A) 0.998

Q) Next record, please: `S=C(NCc1cccnc1)Nc1ccccc1Cl`
A) 0.959

Q) What about `O=C(O/N=C\c1ccc2c(c1)OCO2)c1ccccc1Br` ?
A) 0.826

Q) Now this one: CC(OCc1ccccc1)C(NC(=O)OC(C)(C)C)C(N)=O (stereo unspecified)
A) 0.974

Q) Repeat for the following compound: `CS/C(N)=N\N=C/c1c(F)cccc1Cl`
A) 1.05

Q) Repeat for the following compound: `N#CC(C#N)=CNc1cccc(N)n1`
A) 1.01

Q) Same thing, different compound: `S=C(NCc1ccccc1)Nc1ccc(Cl)c(Cl)c1`
A) 0.548

Q) Field entry: COc1ccc(NC(=O)C(C)c2ccc(CC(C)C)cc2)cc1 (stereo unspecified)
A) 0.937

Q) How about this compound: `COc1cc(OC)nc(N)n1`
A) 0.99

Q) Follow-up item: `O=C1ON=C(c2ccccc2)/C1=C/c1ccc(Cl)cc1`
A) 0.481

Q) Next: Cc1cccc(NC(=S)NC2CC3C=CC2C3)c1 (stereo unspecified)
A) 0.85

Q) Follow-up item: `O=[N+]([O-])c1cc(Cl)ccc1S(=O)(=O)c1ccccc1`
A) 0.955

Q) Also COC(=O)c1cccc(NC(=O)CC2C(=O)NCCN2C(=O)c2cccs2)c1 (stereo unspecified) ?
A) 1.04

Q) Now this one: `Cc1nc(-c2nnc(Sc3ccc(C(F)(F)F)cc3[N+](=O)[O-])n2C)cs1`
A) 1.01

Q) What do you get for `Cc1csc2ccc(Cl)cc12` ?
A) 1.06

Q) And what about the compound `S=c1[nH]nc(SCCSc2n[nH]c(=S)s2)s1` ?
A) 0.963

Q) Continue with `Cc1c(Br)sc2ccc(Cl)cc12`
A) 0.782
